Measured pIC50 by item
# Tested on: Staphylococcus aureus MW2 (mecA+)
# Test Name: IC50 (growth, competition assay)
# Condition: fluorescent label: DsRed; cefoxitin: subinhibitory
pIC50: −log10 of the molar value.

- Compound: "CNC(=O)c1cc(Oc2ccc(NC(=O)Nc3ccc(Cl)c(C(F)(F)F)c3)cc2)ccn1"
  Study System: "Staphylococcus aureus MW2 (mecA+)"
  pIC50: "> 5.01"
- Compound: "Cc1cc2c(C(C)C)c(O)c(O)c(C=O)c2c(O)c1-c1c(C)cc2c(C(C)C)c(O)c(O)c(C=O)c2c1O [Gossypol]"
  Study System: "Staphylococcus aureus MW2 (mecA+)"
  pIC50: "> 5.01"
- Compound: "O=C1NC(=O)/C(=C/c2ccc(-c3ccc(F)cc3O)o2)S1"
  Study System: "Staphylococcus aureus MW2 (mecA+)"
  pIC50: "> 5.01"
- Compound: "C[C@H](CCC(=O)O)[C@H]1CC[C@H]2[C@@H]3[C@H](O)C[C@@H]4C[C@H](O)CC[C@]4(C)[C@H]3CC[C@]12C"
  Study System: "Staphylococcus aureus MW2 (mecA+)"
  pIC50: 4.27
- Compound: "CN(N=O)C(=O)N[C@@H]1[C@@H](O)[C@H](O)[C@@H](CO)O[C@@H]1O"
  Study System: "Staphylococcus aureus MW2 (mecA+)"
  pIC50: "> 5.01"
- Compound: "CN1CCN(CCCN2c3ccccc3Sc3ccc(Cl)cc32)CC1 [Prochlorperazine dimaleate]"
  Study System: "Staphylococcus aureus MW2 (mecA+)"
  pIC50: 4.25
- Compound: "COC(=O)c1c(C)c2c(c(C)c1O)OC(=O)c1c(C)c(Cl)c(O)c(Cl)c1O2"
  Study System: "Staphylococcus aureus MW2 (mecA+)"
  pIC50: "> 5.01"
- Compound: "Cc1ncc(-c2ccnc(Nc3ccc(S(C)(=O)=O)cc3)n2)n1C(C)C"
  Study System: "Staphylococcus aureus MW2 (mecA+)"
  pIC50: "< 3.82"

====

# Test system: Staphylococcus aureus MW2 delta-mecA (mecA-)
# Test Name: IC50 (growth, competition assay)
# Condition: fluorescent label: DsRed; cefoxitin: subinhibitory
pIC50: −log10 of the molar value.

- Compound: "CC[C@H](C)C[C@H](C)CCCCCCCCC(=O)N[C@H]1C[C@@H](O)[C@@H](NCCN)NC(=O)[C@@H]2[C@@H](O)CCN2C(=O)[C@H]([C@H](O)CCN)NC(=O)[C@H]([C@H](O)[C@@H](O)c2ccc(O)cc2)NC(=O)[C@@H]2C[C@@H](O)CN2C(=O)[C@H]([C@@H](C)O)NC1=O [Caspofungin acetate]"
  Study System: "Staphylococcus aureus MW2 delta-mecA (mecA-)"
  Modifier: "="
  pIC50: 4.84
- Compound: "C[C@@H]1CN(c2c(F)c(N)c3c(=O)c(C(=O)O)cn(C4CC4)c3c2F)C[C@H](C)N1 [Sparfloxacin]"
  Study System: "Staphylococcus aureus MW2 delta-mecA (mecA-)"
  Modifier: ">"
  pIC50: 6.30
- Compound: "CN[C@H]1CC[C@@H](c2ccc(Cl)c(Cl)c2)c2ccccc21 [ZOLOFT]"
  Study System: "Staphylococcus aureus MW2 delta-mecA (mecA-)"
  Modifier: "="
  pIC50: 4.51
- Compound: "CC[C@H](C)[C@H](N)C1=N[C@H](C(=O)N[C@@H](CC(C)C)C(=O)N[C@H](CCC(=O)[O-])C(=O)N[C@H](C(=O)N[C@H]2CCCCNC(=O)[C@H](CC(N)=O)NC(=O)[C@@H](CC(=O)[O-])NC(=O)[C@H](Cc3cnc[nH]3)NC(=O)[C@@H](Cc3ccccc3)NC(=O)[C@H]([C@@H](C)CC)NC(=O)[C@@H](CCCN)NC2=O)[C@@H](C)CC)CS1.[Zn+2]"
  Study System: "Staphylococcus aureus MW2 delta-mecA (mecA-)"
  Modifier: "="
  pIC50: 5.36
